system: rodent lifetime carcinogenesis bioassay, tumor incidence TD50; assay: carcinogenic potency in animals, long-term in vivo studies, CPDB compilation (AID 1745844); conditions: hamster; strain Syrian Golden; females; in drinking water; site: forestomach; lesion: carcinoma; dosed 90 weeks; study length 90 weeks
ASSAY READOUT: TD50

[[record]]
smiles = "CCOC(N)=O"
observed_value = "374 mg/kg/day"


----------
tested on: rodent lifetime carcinogenesis bioassay, tumor incidence TD50; assay: carcinogenic potency in animals, long-term in vivo studies, CPDB compilation (AID 1745844); settings: mouse; strain CDF1; males; in feed; site: liver; lesion: hepatocellular carcinoma; dosed 97 weeks; study length 97 weeks
ASSAY READOUT: TD50 (mg/kg/day)

[[record]]
smiles = "Nc1ccc2c(n1)[nH]c1ccccc12"
assay_readout = "TD50"
observed_value = 225


----------
test system: rodent lifetime carcinogenesis bioassay, tumor incidence TD50; assay: carcinogenic potency in animals, long-term in vivo studies, CPDB compilation (AID 1745844); settings: rat; strain F344/DuCrj; females; in feed; site: liver; lesion: hepatocellular carcinoma; dosed 104 weeks; study length 113 weeks
ASSAY READOUT: TD50 (mg/kg/day)

[[record]]
smiles = "S=c1nc[nH]c2nc[nH]c12"
u = "mg/kg/day"
observed_value = 139


----------
system: rodent lifetime carcinogenesis bioassay, tumor incidence TD50; assay: carcinogenic potency in animals, long-term in vivo studies, CPDB compilation (AID 1745844); conditions: mouse; strain B6C3F1; females; in feed; site: liver; lesion: hepatoblastoma + hepatocellular carcinoma; dosed 103 weeks; study length 106 weeks
ASSAY READOUT: TD50 (mg/kg/day)

[[record]]
smiles = "Nc1cc(S(=O)(=O)[O-])cc2cc(S(=O)(=O)[O-])c(N=Nc3ccc(-c4ccc(N=Nc5c(S(=O)(=O)[O-])cc6cc(S(=O)(=O)[O-])cc(N)c6c5O)c(O)c4)cc3O)c(O)c12.[Cu].[Cu].[Na+].[Na+].[Na+].[Na+]"
assayed_system = "rodent lifetime carcinogenesis bioassay, tumor incidence TD50"
observed_value = 4000


----------
tested on: rodent lifetime carcinogenesis bioassay, tumor incidence TD50; test: carcinogenic potency in animals, long-term in vivo studies, CPDB compilation (AID 1745844); settings: mouse; strain B6C3F1; males; inhaled; site: all sites; lesion: hemangioma + hemangiosarcoma; dosed 13 weeks; study length 104 weeks
ASSAY READOUT: TD50 (mg/kg/day)

[[record]]
smiles = "C=CC=C"
assayed_system = "rodent lifetime carcinogenesis bioassay, tumor incidence TD50"
u = "mg/kg/day"
observed_value = 16.9


----------
test system: rodent lifetime carcinogenesis bioassay, tumor incidence TD50; test: carcinogenic potency in animals, long-term in vivo studies, CPDB compilation (AID 1745844); details: rat; strain Fischer 344; females; in drinking water; site: liver; lesion: hemangiosarcoma; dosed 25 weeks; study length 128 weeks
ASSAY READOUT: TD50

[[record]]
smiles = "O=NN1CC=CCC1"
assayed_system = "rodent lifetime carcinogenesis bioassay, tumor incidence TD50"
observed_value = "4.04 mg/kg/day"


----------
test system: rodent lifetime carcinogenesis bioassay, tumor incidence TD50; assay: carcinogenic potency in animals, long-term in vivo studies, CPDB compilation (AID 1745844); conditions: rat; strain Sprague-Dawley; males; by gavage; site: Zymbal's gland; lesion: carcinoma; dosed 104 weeks; study length 141 weeks
ASSAY READOUT: TD50

[[record]]
smiles = "Cc1cccc(C)c1"
assay_readout = "TD50"
observed_value = "58400 mg/kg/day"

